B1: library; numbered along this chain (parent)
chain: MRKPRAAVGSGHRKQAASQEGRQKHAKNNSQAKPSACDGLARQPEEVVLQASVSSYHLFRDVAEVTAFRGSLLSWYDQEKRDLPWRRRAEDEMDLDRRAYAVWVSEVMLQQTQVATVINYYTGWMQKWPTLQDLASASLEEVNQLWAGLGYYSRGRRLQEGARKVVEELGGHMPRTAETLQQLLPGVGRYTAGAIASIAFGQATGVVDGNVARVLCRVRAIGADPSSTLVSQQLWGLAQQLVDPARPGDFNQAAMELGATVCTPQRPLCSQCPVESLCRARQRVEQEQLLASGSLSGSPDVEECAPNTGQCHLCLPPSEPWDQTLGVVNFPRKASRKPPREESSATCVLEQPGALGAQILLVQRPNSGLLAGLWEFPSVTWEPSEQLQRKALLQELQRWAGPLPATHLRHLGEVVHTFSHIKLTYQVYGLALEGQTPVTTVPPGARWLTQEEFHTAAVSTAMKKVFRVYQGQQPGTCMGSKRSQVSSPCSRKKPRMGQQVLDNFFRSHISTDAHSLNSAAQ

Variants of: B1
Test: 8OG:A repair function score (normalized; synonymous = 0, nonsense = -1) (normalized log-likelihood score); higher = more repair activity (WT-like);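 note: cells sorted at 72 h after reporter transfection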
Conditions: with 8OG:A DNA repair reporter (GFP) in HEK-293 MUTYH KO cells
So basically: 8OG:A repair function score at -0.03 or higher? That is condition met. Lower than -0.03? That is condition not met.

For orientation, consider the following solved cases.
{"RESIDUE_CHANGE": "V107W", "CLASS_NAME": "condition not met"}
{"RESIDUE_CHANGE": "F504I", "CLASS_NAME": "condition met"}
{"RESIDUE_CHANGE": "R69K", "CLASS_NAME": "condition not met"}
{"RESIDUE_CHANGE": "Q470N", "CLASS_NAME": "condition met"}
{"RESIDUE_CHANGE": "A63S", "CLASS_NAME": "condition met"}

We now examine a further variant.
Input line: Decide: 8OG:A repair function score of "S292A" >= -0.03?
Output line: condition met
